# credit: patent US20210198277A1

# target_system: human EHMT2 913-1193 (Homo sapiens)
# Construct: recombinant purified human EHMT2 913-1193, Viva; purchased Viva
# measurement_description: EHMT2 enzyme assay on histone peptide substrate (EHMT2 PEP)
# Format: biochemical
# condition_info: Table II; read-out: EHMT2 PEP (IC50 μM)
Below, each entry is listed alongside its reported IC50.
measurement_label: IC50

[[record]]
compound = "COc1ccc(Nc2nccc(N3CCNc4ccccc4C3)n2)cc1OCCCN1CCCC1 [Compound 154]"
observed_measurement = "1 to 10 µM"

[[record]]
compound = "COc1ccc(Nc2ccnc(NCC3CCNCC3)c2)cc1OCCCN1CCCC1 [Compound 11]"
observed_measurement = "< 0.1 µM"

[[record]]
compound = "COc1ccc(Nc2cnnc(NCC3CCN(C(C)=O)CC3)c2)cc1OCCCN1CCCC1 [Compound 242]"
observed_measurement = "1 to 10 µM"

[[record]]
compound = "CNc1cc(Nc2cc(OCCCN3CCCC3)c(OC)cn2)ccn1 [Compound 248]"
observed_measurement = "< 0.1 µM"

[[record]]
compound = "COc1ccc(Nc2nccc(CNC3CCN(C(C)=O)CC3)n2)cc1OCCCN1CCCC1 [Compound 106]"
observed_measurement = "1 to 10 µM"


====

# target_system: human EHMT2 913-1193 (Homo sapiens, UniProt Q96KQ7)
# Construct: recombinant purified human EHMT2 913-1193, Viva; purchased Viva
# measurement_description: EHMT2 enzyme assay on histone peptide substrate (EHMT2 PEP)
# Assay type: biochemical
# condition_info: Table VI; read-out: EHMT2 PEP IC50
pIC50: −log10 of the molar value.
measurement_label: pIC50

[[record]]
compound = "CNc1cc(C)nc(Nc2ccc(CNC(=O)c3ccccc3)c(OC)c2)n1"
target_system = "human EHMT2 913-1193 (Homo sapiens, UniProt Q96KQ7)"
observed_measurement = "< 5.00"

[[record]]
compound = "CNc1cc(C2CCOCC2)c2cc(OC)c(OCCCN3CC(O)C3)cc2n1"
target_system = "human EHMT2 913-1193 (Homo sapiens, UniProt Q96KQ7)"
observed_measurement = "> 7.00"

[[record]]
compound = "CNc1nc(C)c2cc(OC)c(OCCCN3CCCC3)cc2n1"
target_system = "human EHMT2 913-1193 (Homo sapiens, UniProt Q96KQ7)"
observed_measurement = "5.00 to 6.00"

[[record]]
compound = "CCN1CCC(O)(COc2cc(Nc3nccc(NC)n3)ccc2OC)C1 (stereo not drawn) [Compound 1007]"
target_system = "human EHMT2 913-1193 (Homo sapiens, UniProt Q96KQ7)"
observed_measurement = "< 5.00"

[[record]]
compound = "CNc1cc(C)nc(Nc2ccc(C(=O)NCc3ccccc3)c(OC)c2)n1"
target_system = "human EHMT2 913-1193 (Homo sapiens, UniProt Q96KQ7)"
observed_measurement = "< 5.00"

[[record]]
compound = "CCN1CCO[C@H](COc2cc(Nc3nccc(NC)n3)ccc2OC)C1"
target_system = "human EHMT2 913-1193 (Homo sapiens, UniProt Q96KQ7)"
observed_measurement = "< 5.00"

[[record]]
compound = "CNc1ccnc(Nc2cnc(OC)c(OC[C@@H]3CCN(C4CCC4)C3)n2)n1"
target_system = "human EHMT2 913-1193 (Homo sapiens, UniProt Q96KQ7)"
observed_measurement = "6.00 to 7.00"

[[record]]
compound = "COc1cc2c(C3CCN(CCC(F)(F)F)CC3)cc(C)nc2cc1OCCCN1CCCC1"
target_system = "human EHMT2 913-1193 (Homo sapiens, UniProt Q96KQ7)"
observed_measurement = "> 7.00"

[[record]]
compound = "COc1cnc(Nc2nccc3nccn23)cc1OC[C@@H]1CCNC1"
target_system = "human EHMT2 913-1193 (Homo sapiens, UniProt Q96KQ7)"
observed_measurement = "< 5.00"

[[record]]
compound = "CCN1CC[C@@H](COc2cc(Nc3nc(C)cc4[nH]ncc34)ncc2OC)C1"
target_system = "human EHMT2 913-1193 (Homo sapiens, UniProt Q96KQ7)"
observed_measurement = "> 7.00"

[[record]]
compound = "CNc1ccnc(Nc2ccc(OC)c(OCC(C)CN3CCC3)c2)n1 (stereo not drawn)"
target_system = "human EHMT2 913-1193 (Homo sapiens, UniProt Q96KQ7)"
observed_measurement = "6.00 to 7.00"

[[record]]
compound = "CNc1cc(C)nc(Nc2ccc(OC)c(C#CC3CCN(C)C3)c2)n1 (stereo not drawn)"
target_system = "human EHMT2 913-1193 (Homo sapiens, UniProt Q96KQ7)"
observed_measurement = "6.00 to 7.00"

[[record]]
compound = "CNCCN(C)Cc1cc(Nc2nc(C)cc(NC)n2)ccc1OC"
target_system = "human EHMT2 913-1193 (Homo sapiens, UniProt Q96KQ7)"
observed_measurement = "5.00 to 6.00"

[[record]]
compound = "COc1cc2c(C3CCOCC3)cc(N(C)C)nc2cc1OCCCN1CCCC1"
target_system = "human EHMT2 913-1193 (Homo sapiens, UniProt Q96KQ7)"
observed_measurement = "6.00 to 7.00"

[[record]]
compound = "COc1cc2c(C)cc(N3CCCCC3)nc2cc1OCCCN1CCCC1"
target_system = "human EHMT2 913-1193 (Homo sapiens, UniProt Q96KQ7)"
observed_measurement = "6.00 to 7.00"

[[record]]
compound = "CNc1ccnc(Nc2ccc(OC)c(OC[C@@H](CN3CCCC3)OC)c2)n1"
target_system = "human EHMT2 913-1193 (Homo sapiens, UniProt Q96KQ7)"
observed_measurement = "5.00 to 6.00"

[[record]]
compound = "CCN1CC[C@@H](COc2cc3nc(C)cc(C4CCN(C)CC4)c3cc2OC)C1"
target_system = "human EHMT2 913-1193 (Homo sapiens, UniProt Q96KQ7)"
observed_measurement = "> 7.00"

[[record]]
compound = "COc1cnc(Nc2cccc3[nH]ncc23)nc1OCCCN1CCCC1"
target_system = "human EHMT2 913-1193 (Homo sapiens, UniProt Q96KQ7)"
observed_measurement = "< 5.00"


====

# target_system: EHMT2 (Homo sapiens)
# Construct: host or cells: MDA-MB-231
# Sequence (Q96KQ7 1-1210): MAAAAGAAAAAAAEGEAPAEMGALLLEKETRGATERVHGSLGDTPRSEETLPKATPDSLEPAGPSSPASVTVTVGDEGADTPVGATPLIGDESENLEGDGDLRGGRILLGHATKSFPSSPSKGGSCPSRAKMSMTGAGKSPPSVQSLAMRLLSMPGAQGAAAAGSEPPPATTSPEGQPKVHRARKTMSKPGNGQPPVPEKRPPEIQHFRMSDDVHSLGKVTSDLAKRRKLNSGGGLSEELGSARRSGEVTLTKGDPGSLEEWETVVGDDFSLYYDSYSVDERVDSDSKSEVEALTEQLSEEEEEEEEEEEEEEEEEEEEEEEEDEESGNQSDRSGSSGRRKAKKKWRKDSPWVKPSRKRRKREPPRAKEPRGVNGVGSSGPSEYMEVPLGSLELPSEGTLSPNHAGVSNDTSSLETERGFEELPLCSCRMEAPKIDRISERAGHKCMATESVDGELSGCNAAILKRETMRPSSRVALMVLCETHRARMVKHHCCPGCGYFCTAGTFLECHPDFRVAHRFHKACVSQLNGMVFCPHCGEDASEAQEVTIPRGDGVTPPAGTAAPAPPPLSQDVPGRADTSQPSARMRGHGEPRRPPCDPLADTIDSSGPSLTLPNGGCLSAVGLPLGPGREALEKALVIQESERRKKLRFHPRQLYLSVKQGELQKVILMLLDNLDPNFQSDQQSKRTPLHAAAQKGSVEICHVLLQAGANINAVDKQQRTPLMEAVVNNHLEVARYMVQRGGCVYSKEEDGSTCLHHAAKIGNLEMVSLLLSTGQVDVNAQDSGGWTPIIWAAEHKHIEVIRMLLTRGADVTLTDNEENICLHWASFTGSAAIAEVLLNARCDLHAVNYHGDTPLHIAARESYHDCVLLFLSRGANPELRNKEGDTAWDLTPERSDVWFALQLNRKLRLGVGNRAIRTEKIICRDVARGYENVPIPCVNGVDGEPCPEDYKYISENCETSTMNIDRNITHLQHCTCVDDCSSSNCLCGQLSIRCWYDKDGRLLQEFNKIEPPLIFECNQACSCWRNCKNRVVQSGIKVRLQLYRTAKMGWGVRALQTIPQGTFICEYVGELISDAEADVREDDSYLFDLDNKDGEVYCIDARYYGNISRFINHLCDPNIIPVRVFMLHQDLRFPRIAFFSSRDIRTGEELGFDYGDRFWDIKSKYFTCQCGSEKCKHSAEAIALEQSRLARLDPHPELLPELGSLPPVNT
# measurement_description: MDA-MB-231 H3K9me2 in-cell Western assay (EHMT2 ICW)
# Assay type: cell-based
# condition_info: Table III; MDA-MB-231 H3K9me2 in-cell Western; read-out: EHMT2 ICW (IC50 μM)
Recorded IC50 values for a group of compounds are listed next.
measurement_label: IC50

[[record]]
compound = "CNc1ccnc(Nc2cccc(N3CCC(N)C3=O)c2)n1 (stereo not shown)"
observed_measurement = "> 10 µM"

[[record]]
compound = "CNc1ccnc(Nc2ccc(OC)c(OCCCN3CCCC3)c2)n1"
observed_measurement = "0.1 to 1 µM"

[[record]]
compound = "COc1ccc(NCCCN2CCCC2)cc1Nc1nccc(NCC2CCOCC2)n1"
observed_measurement = "> 10 µM"

[[record]]
compound = "CNCc1cnc(Nc2ccc(OC)c(OCCCN3CCCC3)c2)nc1"
observed_measurement = "> 10 µM"

[[record]]
compound = "CNc1cc(C)nc(Nc2ccc(OC)c(OCC3CCN(C4COC4)C3)c2)n1 (stereo not shown)"
observed_measurement = "0.1 to 1 µM"

[[record]]
compound = "CNc1ccnc(Nc2ccc(OC)c(OCCN3CCOCC3)c2)n1"
observed_measurement = "> 10 µM"

[[record]]
compound = "COc1cnc(Nc2cc(C)nc3[nH]ccc23)cc1OCCCN1CCCC1"
observed_measurement = "1 to 10 µM"

[[record]]
compound = "CNc1cc(C)nc(Nc2ccc(OC)c(O[C@H]3C[C@@H](CN(C)C)C3)c2)n1"
observed_measurement = "> 10 µM"

[[record]]
compound = "CNc1ccnc(Nc2cccc(C(C)OCCN3CCCC3)c2)n1 (stereo not shown)"
observed_measurement = "> 10 µM"

[[record]]
compound = "CNc1nc(Nc2ccc(OC)c(OCCCN3CCCC3)c2)ncc1C(F)(F)F"
observed_measurement = "> 10 µM"

[[record]]
compound = "COc1cnc(Nc2cnc3ccccn23)cc1OCCCN1CCCC1"
observed_measurement = "> 10 µM"

[[record]]
compound = "CNc1ccnc(Nc2ccc3c(c2)N(C(=O)CCN(C)C)CC3)n1"
observed_measurement = "> 10 µM"

[[record]]
compound = "CNc1ccnc(Nc2ccc3cnn(CCCN(C)C)c3c2)n1"
observed_measurement = "> 10 µM"

[[record]]
compound = "CNc1cc(C)nc(Nc2cc(F)c(OC)c(OCCCN3CCCC3)c2)n1"
observed_measurement = "> 10 µM"

[[record]]
compound = "CNc1ccnc(Nc2ccc(OC)c(OCC3CCN(C4CC4)C3)c2)n1 (stereo not shown)"
observed_measurement = "0.1 to 1 µM"

[[record]]
compound = "CNc1ccnc(Nc2ccc(F)c(OCCCN3CCCC3)c2)n1"
observed_measurement = "> 10 µM"

[[record]]
compound = "CCN1CCC(COc2cc(Nc3nccc(NC)n3)ccc2OC)C1 (stereo not shown)"
observed_measurement = "0.1 to 1 µM"

[[record]]
compound = "CNc1cc(Nc2cc(OCCCN3CCCC3)c(OC)cn2)ncn1"
observed_measurement = "> 10 µM"

[[record]]
compound = "COc1ccc(Nc2cccc3ncnn23)cc1OCCCN1CCCC1"
observed_measurement = "> 10 µM"

